Biological target: Tyrosyl-tRNA synthetase, putative (Trypanosoma cruzi (strain CL Brener)) (UniProt Q4DSP6)
Sequence (Q4DSP6 as listed by the source): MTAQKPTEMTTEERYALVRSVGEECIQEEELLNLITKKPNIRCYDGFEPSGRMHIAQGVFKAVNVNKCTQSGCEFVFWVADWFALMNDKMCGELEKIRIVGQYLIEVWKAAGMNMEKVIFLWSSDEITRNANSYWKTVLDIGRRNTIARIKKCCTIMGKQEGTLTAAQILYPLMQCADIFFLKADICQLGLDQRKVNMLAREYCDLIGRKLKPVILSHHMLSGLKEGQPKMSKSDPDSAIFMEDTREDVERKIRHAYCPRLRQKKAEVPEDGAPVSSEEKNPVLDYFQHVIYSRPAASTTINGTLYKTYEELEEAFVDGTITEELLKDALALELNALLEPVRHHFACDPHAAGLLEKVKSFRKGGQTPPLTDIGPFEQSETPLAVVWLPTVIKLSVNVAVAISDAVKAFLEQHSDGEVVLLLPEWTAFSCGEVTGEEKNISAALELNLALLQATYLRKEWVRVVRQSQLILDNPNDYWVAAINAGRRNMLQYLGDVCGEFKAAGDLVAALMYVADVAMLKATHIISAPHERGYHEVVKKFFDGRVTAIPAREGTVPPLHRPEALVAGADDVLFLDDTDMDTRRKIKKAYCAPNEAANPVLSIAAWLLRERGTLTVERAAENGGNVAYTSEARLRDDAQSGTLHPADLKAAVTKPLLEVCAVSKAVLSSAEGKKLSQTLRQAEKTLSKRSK
Test: Trypanosoma cruzi tyrosyl tRNA synthetase (TcYRS) _High Tyrosine SOP
Type: functional
Design: scale not given: in the data most compounds retested in dose-response had high values
Conditions: 30 µM
Overview of reported Percent Effect across a group of compounds:
The reply should contain only the number, in %.

-- ask Which value of Percent Effect has been reported for COc1ccccc1S(=O)(=O)N1CCC(Oc2cccnn2)CC1 in the records?
-- reply -1.07

-- ask Which value of Percent Effect has been reported for O=C(c1cnccn1)N1CCOCC2(CCN(C3CCOCC3)C2)C1 (configuration not stated) in the records?
-- reply 8.47

-- ask Which value of Percent Effect has been reported for CN(C)C(=O)NC1COC2(CCN(Cc3ccccc3)CC2)C1 (configuration not stated) in the records?
-- reply -3.19

-- ask Which value of Percent Effect has been reported for COCCN1CCC(NCc2ccc(C#N)cc2)C1 (configuration not stated) in the records?
-- reply 8.74

-- ask Which value of Percent Effect has been reported for COc1ccc(CN2C[C@@H]3COC[C@]3(COc3cccnc3)C2)cc1 in the records?
-- reply 0

-- ask Which value of Percent Effect has been reported for CCn1nnc2c1C(COC)CN(C(=O)COc1ccccc1)C2 (configuration not stated) in the records?
-- reply 5.94

-- ask Which value of Percent Effect has been reported for CC(=O)NCCNC(=O)CN1CCN(Cc2nccn2C)C(C)C1 (configuration not stated) in the records?
-- reply 7.92

-- ask Which value of Percent Effect has been reported for Cc1ccc(CN2CC(C(=O)N3CCCC3)C3(CCOCC3)C2)s1 (configuration not stated) in the records?
-- reply 2.08

-- ask Which value of Percent Effect has been reported for CC(C)C(Sc1nnnn1C1CC1)C(=O)NCc1cccnc1 (configuration not stated) in the records?
-- reply 6.8

-- ask Which value of Percent Effect has been reported for O=C(CC1CCCCC1)N1CCN(C(=O)NCc2ccccn2)CC1 in the records?
-- reply 4.76

-- ask Which value of Percent Effect has been reported for N#Cc1ccc(F)c(CN2CCCC2Cn2cnc3ccccc32)c1 (configuration not stated) in the records?
-- reply 1.98

-- ask Which value of Percent Effect has been reported for CCOc1ccc(Cl)c(C(=O)N2CCN(c3cnccn3)CC2)n1 in the records?
-- reply 10.7

Origin of measurements: ChEMBL document CHEMBL3988442
